tested-target: Insulin receptor-related protein (Homo sapiens) (UniProt P14616);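 also: mean percent inhibition of IRR, reported within the GSK PKIS screening panel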
Sequence (P14616 27-742 limits assumed): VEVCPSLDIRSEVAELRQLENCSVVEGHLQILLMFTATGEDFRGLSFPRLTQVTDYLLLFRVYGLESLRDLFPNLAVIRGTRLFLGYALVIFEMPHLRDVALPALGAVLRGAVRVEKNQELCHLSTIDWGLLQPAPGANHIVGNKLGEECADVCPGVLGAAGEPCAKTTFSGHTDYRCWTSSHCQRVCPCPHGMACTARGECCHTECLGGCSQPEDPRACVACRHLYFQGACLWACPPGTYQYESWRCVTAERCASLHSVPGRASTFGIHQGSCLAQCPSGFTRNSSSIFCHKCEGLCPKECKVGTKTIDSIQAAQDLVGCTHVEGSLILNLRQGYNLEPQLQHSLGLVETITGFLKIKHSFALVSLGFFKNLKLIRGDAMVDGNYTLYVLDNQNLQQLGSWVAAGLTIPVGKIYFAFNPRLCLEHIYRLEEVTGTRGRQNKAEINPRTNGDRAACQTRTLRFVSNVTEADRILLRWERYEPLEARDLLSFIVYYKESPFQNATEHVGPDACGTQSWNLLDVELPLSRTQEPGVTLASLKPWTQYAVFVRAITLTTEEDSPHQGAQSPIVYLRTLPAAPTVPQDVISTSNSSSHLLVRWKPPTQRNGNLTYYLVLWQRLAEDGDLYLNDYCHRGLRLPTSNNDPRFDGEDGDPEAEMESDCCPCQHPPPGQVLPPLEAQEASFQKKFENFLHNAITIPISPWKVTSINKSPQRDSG
Sequence (P14616 747-1297 limits assumed): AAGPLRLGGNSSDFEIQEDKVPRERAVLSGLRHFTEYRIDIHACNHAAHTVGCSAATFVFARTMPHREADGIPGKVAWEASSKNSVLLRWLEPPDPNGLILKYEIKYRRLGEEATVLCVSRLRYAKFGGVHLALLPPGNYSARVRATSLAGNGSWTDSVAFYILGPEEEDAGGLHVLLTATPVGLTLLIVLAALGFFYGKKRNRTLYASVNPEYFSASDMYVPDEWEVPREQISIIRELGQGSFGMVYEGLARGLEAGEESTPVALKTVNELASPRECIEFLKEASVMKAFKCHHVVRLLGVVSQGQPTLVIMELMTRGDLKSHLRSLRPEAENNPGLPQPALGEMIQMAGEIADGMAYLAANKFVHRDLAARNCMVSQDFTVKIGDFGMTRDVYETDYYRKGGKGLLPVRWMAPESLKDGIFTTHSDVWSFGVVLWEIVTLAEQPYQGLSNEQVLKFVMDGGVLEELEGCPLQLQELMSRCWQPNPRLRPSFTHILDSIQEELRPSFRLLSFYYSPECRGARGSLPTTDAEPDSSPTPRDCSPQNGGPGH
test-conditions: at 0.1 µM

compound-string: CCn1c(-c2nonc2N)nc2c(C#CC(C)(C)O)nc(OC[C@H](N)c3ccccc3)cc21
inhibition, %: 0.82
//
compound-string: O=C(O[C@H]1CN[C@H](C#Cc2cc3ncnc(Nc4ccc(Cc5ccccc5)cc4)c3s2)C1)N1CCOCC1
inhibition, %: 0.8
//
compound-string: COc1ccc(-c2oc3ncnc(N)c3c2-c2ccc(NC(=O)Nc3cc(C(F)(F)F)ccc3F)cc2)cc1
inhibition, %: 1.97

* * *

tested-target: RAC-gamma serine/threonine-protein kinase (Homo sapiens) (UniProt Q9Y243)
Sequence (Q9Y243 whole entry): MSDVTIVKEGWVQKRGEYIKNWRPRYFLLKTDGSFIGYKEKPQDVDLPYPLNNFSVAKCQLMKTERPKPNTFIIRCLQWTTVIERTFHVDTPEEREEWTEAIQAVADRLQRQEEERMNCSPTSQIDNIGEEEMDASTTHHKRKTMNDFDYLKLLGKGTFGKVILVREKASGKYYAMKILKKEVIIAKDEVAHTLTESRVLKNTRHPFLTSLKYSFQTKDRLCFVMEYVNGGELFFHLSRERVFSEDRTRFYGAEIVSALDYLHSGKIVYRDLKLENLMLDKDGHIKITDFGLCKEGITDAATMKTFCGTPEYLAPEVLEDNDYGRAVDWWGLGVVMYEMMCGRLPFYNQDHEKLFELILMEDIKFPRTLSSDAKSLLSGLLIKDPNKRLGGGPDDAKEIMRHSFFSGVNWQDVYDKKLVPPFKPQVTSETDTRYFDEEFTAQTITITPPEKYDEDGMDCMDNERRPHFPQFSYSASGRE
test-conditions: at 1 µM
Description: GSK_PKIS: AKT3 mean inhibition at 1 uM [Nanosyn]

compound-string: COc1cccc(-c2c[nH]c3c(N/N=C/c4ccncc4)ncnc23)c1
unit-annotation: %
inhibition: -0.22

compound-string: CC(=O)NCc1cccc(C#Cc2cncnc2Nc2ccc(OCc3cccc(F)c3)c(Cl)c2)c1
unit-annotation: %
inhibition: 0.47

compound-string: COc1cc(Nc2nccc(Nc3ccc4c(C)n[nH]c4c3)n2)cc(OC)c1OC
unit-annotation: %
inhibition: 1.18

compound-string: CN1CCC(n2cnc(-c3ccc(F)cc3)c2-c2ccnc(Nc3ccccc3)n2)CC1
unit-annotation: %
inhibition: 5.43

compound-string: c1ccc(-c2nc3n(c2-c2ccc4c(c2)OCO4)CCC3)nc1
unit-annotation: %
inhibition: 0.06

compound-string: COc1cc2ncn(-c3cc(OCc4ccccc4C(F)(F)F)c(C(=O)N(C)C)s3)c2cc1OC
unit-annotation: %
inhibition: 1.26

compound-string: Nc1nc(-c2ccc(F)cc2)c(-c2ccc3ncccc3n2)s1
unit-annotation: %
inhibition: 1.9

compound-string: COc1ccc(-c2cc(-c3c[nH]nc3-c3ccccn3)ccn2)cc1
unit-annotation: %
inhibition: 1.52

compound-string: CS(=O)(=O)CCNCc1ccc(-c2ccc3ncnc(Nc4ccc(OCc5ccccc5)c(C(F)(F)F)c4)c3c2)o1
unit-annotation: %
inhibition: 3.04

compound-string: CCn1c(-c2nonc2N)nc2c(C#CC(C)(C)O)nc(OC[C@H](N)c3ccccc3)cc21
unit-annotation: %
inhibition: 91.7
